Catalogue of log10 kcat readings, one per entry.
B1: glmS ribozyme (parent)
chain: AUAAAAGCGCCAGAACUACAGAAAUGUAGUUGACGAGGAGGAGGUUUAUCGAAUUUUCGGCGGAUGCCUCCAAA

# Variants of: B1
# ASSAY_NAME: kcat; higher = faster cleavage; RNA array
# ASSAY_CONDITIONS: with glucosamine-6-phosphate
Variants at the floor of the assay were thinned out.
Scale: log10; quantity: kcat; unit before log: s⁻¹

Sample answers from the record:
G41U U54G = -3.11
A14G A53U = -1.46
A53C U56G = -2.52
A14U A39U = -2.09
U30A G37A = -3.51

# ---- query variant ----
Measured log10 kcat, C16G C58U : -4.46
